# experimental system: UniProtKB P21802
# Sequence (P21802 22-821): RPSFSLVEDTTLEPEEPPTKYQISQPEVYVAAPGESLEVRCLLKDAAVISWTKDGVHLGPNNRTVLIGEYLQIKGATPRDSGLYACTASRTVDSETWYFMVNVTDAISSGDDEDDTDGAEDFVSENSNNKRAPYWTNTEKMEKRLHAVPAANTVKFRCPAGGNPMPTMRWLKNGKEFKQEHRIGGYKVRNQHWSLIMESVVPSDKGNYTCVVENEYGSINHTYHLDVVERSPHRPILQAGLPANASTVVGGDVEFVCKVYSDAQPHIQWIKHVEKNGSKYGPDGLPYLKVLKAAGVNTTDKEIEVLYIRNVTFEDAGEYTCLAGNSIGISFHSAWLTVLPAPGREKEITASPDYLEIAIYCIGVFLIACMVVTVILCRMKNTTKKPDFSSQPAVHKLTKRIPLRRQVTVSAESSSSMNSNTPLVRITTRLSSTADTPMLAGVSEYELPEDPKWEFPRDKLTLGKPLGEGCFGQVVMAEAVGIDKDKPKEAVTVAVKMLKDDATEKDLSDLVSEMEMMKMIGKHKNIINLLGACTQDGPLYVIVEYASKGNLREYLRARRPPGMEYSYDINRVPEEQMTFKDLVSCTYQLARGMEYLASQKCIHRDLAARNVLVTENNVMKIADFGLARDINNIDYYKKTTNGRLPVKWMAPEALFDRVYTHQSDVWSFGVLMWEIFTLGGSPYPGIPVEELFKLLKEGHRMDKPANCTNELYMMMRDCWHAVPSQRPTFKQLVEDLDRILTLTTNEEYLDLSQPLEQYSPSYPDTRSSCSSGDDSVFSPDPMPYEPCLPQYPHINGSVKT
# test description: Kinase assay, binding constants (Kd), kinase-tagged T7 phage, qPCR
Kd listing for selected compounds.
metric name: Kd

>  <compound>
COc1cc(-c2n[nH]c3ccc(O[C@H](C)c4c(C)cnnc4C)cc23)cnc1N1CC2CC(C1)N2

>  <metric name>
Kd

>  <value observed>
100 to 300 nM

$$$$
>  <compound>
Cc1ncc(Cl)c([C@@H](C)Oc2ccc3[nH]nc(-c4ccc(N5CC(C)(O)C5)nc4)c3c2)c1Cl

>  <metric name>
Kd

>  <value observed>
20 to 100 nM

$$$$
>  <compound>
Cc1ncc(Cl)c([C@@H](C)Oc2ccc3[nH]nc(-c4cnc(N5CC(O)C5)c(C#N)c4)c3c2)c1Cl

>  <metric name>
Kd

>  <value observed>
> 300 nM

$$$$
>  <compound>
C[C@@H](Oc1ccc2[nH]nc(-c3cnc(N4CC5(CCCNC5)C4)nc3)c2c1)c1c(Cl)cncc1Cl

>  <metric name>
Kd

>  <value observed>
1 to 20 nM

$$$$
>  <compound>
COc1cc2[nH]nc(-c3cnc(N4CC5(COC5)C4)c(C#N)c3)c2cc1O[C@H](C)c1c(C)cnnc1C [Example 324]

>  <metric name>
Kd

>  <value observed>
20 to 100 nM

$$$$
>  <compound>
C[C@@H](Oc1cc2c(-c3ccc(N4CC5(C4)CN(S(C)(=O)=O)C5)nc3)n[nH]c2cc1F)c1c(Cl)cncc1Cl

>  <metric name>
Kd

>  <value observed>
1 to 20 nM

$$$$
>  <compound>
C[C@@H](Oc1ccc2[nH]nc(-c3cnc(N4CCCN(C5COC5)CC4)nc3)c2c1)c1c(Cl)cncc1Cl

>  <metric name>
Kd

>  <value observed>
1 to 20 nM

$$$$

====

# experimental system: FGFR3 (Homo sapiens (Human), UniProt P22607)
# Sequence (P22607 23-806): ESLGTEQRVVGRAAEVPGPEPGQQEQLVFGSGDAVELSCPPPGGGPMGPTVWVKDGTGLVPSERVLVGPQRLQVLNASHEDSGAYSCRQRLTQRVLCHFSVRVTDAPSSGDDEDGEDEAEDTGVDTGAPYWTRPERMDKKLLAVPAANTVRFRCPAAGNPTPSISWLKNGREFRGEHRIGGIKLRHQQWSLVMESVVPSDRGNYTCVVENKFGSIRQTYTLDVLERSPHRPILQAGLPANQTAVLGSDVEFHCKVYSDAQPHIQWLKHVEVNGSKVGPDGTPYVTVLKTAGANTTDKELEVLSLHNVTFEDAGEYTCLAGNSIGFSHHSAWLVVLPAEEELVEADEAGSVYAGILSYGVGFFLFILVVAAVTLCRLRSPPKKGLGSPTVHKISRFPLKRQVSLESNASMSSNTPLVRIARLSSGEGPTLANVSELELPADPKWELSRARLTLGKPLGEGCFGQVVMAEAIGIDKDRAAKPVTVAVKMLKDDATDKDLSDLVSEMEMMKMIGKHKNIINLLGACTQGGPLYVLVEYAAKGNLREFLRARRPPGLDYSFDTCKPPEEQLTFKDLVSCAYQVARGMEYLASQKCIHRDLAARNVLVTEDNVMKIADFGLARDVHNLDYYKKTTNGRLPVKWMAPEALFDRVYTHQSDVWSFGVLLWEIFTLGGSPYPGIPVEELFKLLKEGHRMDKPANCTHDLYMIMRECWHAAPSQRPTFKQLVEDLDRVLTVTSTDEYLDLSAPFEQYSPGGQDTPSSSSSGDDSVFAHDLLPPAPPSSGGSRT
# test description: Kinase assay, binding constants (Kd), kinase-tagged T7 phage, qPCR
Kd listing for selected molecules.
metric name: Kd

>  <smiles string>
COc1cc2[nH]nc(-c3cnc(N4CC5(C4)CN(S(C)(=O)=O)C5)c(C)c3)c2cc1O[C@H](C)c1c(Cl)cncc1Cl

>  <value observed>
1 to 20 nM

$$$$
>  <smiles string>
COc1cc2[nH]nc(-c3cnc(N4CCCC4)c(C#N)c3)c2cc1O[C@H](C)c1c(Cl)cncc1Cl

>  <value observed>
20 to 100 nM

$$$$
>  <smiles string>
C[C@@H](Oc1ccc2[nH]nc(-c3ccc(F)nc3)c2c1)c1c(Cl)cncc1Cl

>  <value observed>
1 to 20 nM

$$$$
>  <smiles string>
C[C@@H](Oc1ccc2[nH]nc(-c3ccc(N4CC5(CN(CC(F)(F)F)C5)C4)nc3)c2c1)c1c(Cl)cncc1Cl

>  <value observed>
1 to 20 nM

$$$$
>  <smiles string>
C[C@@H](Oc1ccc2[nH]nc(-c3ccc(N4CCC5(CC4)CN(C)CC(=O)N5C)nc3)c2c1)c1c(Cl)cncc1Cl

>  <value observed>
1 to 20 nM

$$$$
>  <smiles string>
C[C@@H](Oc1ccc2[nH]nc(-c3ccc(N4CC5(C4)CN(S(C)(=O)=O)C5)nc3)c2c1)c1c(Cl)cncc1Cl

>  <value observed>
1 to 20 nM

$$$$
>  <smiles string>
C[C@@H](Oc1ccc2[nH]nc(-c3cnc(N4CCNCC4)c(F)c3)c2c1)c1c(Cl)cncc1Cl

>  <value observed>
1 to 20 nM

$$$$
>  <smiles string>
C[C@@H](Oc1ccc2[nH]nc(-c3ccc(N4CC5(CCN(S(C)(=O)=O)CC5)C4)nc3)c2c1)c1c(Cl)cncc1Cl

>  <value observed>
1 to 20 nM

$$$$
>  <smiles string>
C[C@@H](Oc1ccc2[nH]nc(-c3ccc(N4CCCNC(=O)C4)nc3)c2c1)c1c(Cl)cncc1Cl

>  <value observed>
1 to 20 nM

$$$$
>  <smiles string>
COC(=O)N1CCCC2(C1)CN(c1ccc(-c3n[nH]c4ccc(O[C@H](C)c5c(Cl)cncc5Cl)cc34)cn1)C2

>  <value observed>
1 to 20 nM

$$$$
>  <smiles string>
C[C@@H](Oc1ccc2[nH]nc(-c3ccc(N4CCN(C(=O)N5CCOCC5)CC4)nc3)c2c1)c1c(Cl)cncc1Cl

>  <value observed>
1 to 20 nM

$$$$
>  <smiles string>
C[C@@H](Oc1ccc2[nH]nc(-c3cnn(C4CCN(C5CCC5)CC4)c3)c2c1)c1cc(F)cc(F)c1

>  <value observed>
20 to 100 nM

$$$$
>  <smiles string>
Cc1ncc(Cl)c([C@@H](C)Oc2ccc3[nH]nc(-c4cnn(C5CCN(C(C)C)CC5)c4)c3c2)c1Cl

>  <value observed>
1 to 20 nM

$$$$
>  <smiles string>
Cc1cc(-c2n[nH]c3ccc(O[C@H](C)c4c(Cl)cnc(C)c4Cl)cc23)cnc1N1CC2(CCOC2)C1

>  <value observed>
1 to 20 nM

$$$$
>  <smiles string>
Cc1cnnc(C)c1[C@H](C)Oc1ccc2[nH]nc(-c3cnc(N4CCC5(CC4)CCS(=O)(=O)C5)nc3)c2c1

>  <value observed>
100 to 300 nM

$$$$
>  <smiles string>
COC1CC2(C1)CN(c1ccc(-c3n[nH]c4ccc(O[C@H](C)c5c(Cl)cnc(C)c5Cl)cc34)cn1)C2

>  <value observed>
1 to 20 nM

$$$$
>  <smiles string>
C[C@@H](Oc1cc2c(-c3cnc(N4CC(C)(C)C4)c(CN(C)C)c3)n[nH]c2cc1Cl)c1c(Cl)cncc1Cl

>  <value observed>
> 300 nM

$$$$
>  <smiles string>
COc1cc2[nH]nc(-c3ccc(N4CC5CC(C4)N5)nc3)c2cc1O[C@H](C)c1c(C)cnnc1C

>  <value observed>
1 to 20 nM

$$$$
>  <smiles string>
C[C@@H](Oc1ccc2[nH]nc(-c3ccc(N4CC5(CCN5S(C)(=O)=O)C4)nc3)c2c1)c1c(Cl)cncc1Cl

>  <value observed>
1 to 20 nM

$$$$
>  <smiles string>
C[C@@H](Oc1ccc2[nH]nc(-c3ccc(N4CC5CC(C4)N5S(C)(=O)=O)nc3)c2c1)c1c(Cl)cncc1Cl

>  <value observed>
1 to 20 nM

$$$$
>  <smiles string>
COc1cc2[nH]nc(-c3cnc(N4CCC4)c(S(C)(=O)=O)c3)c2cc1O[C@H](C)c1c(Cl)cncc1Cl

>  <value observed>
100 to 300 nM

$$$$
>  <smiles string>
C[C@@H](Oc1ccc2[nH]nc(-c3cnc(N4CC5(CCN(S(C)(=O)=O)CC5)C4)nc3)c2c1)c1c(Cl)cncc1Cl

>  <value observed>
1 to 20 nM

$$$$
>  <smiles string>
C[C@@H](Oc1ccc2[nH]nc(-c3ccc(N4CCC5(CC4)CN(C)CC(=O)N5)nc3)c2c1)c1c(Cl)cncc1Cl

>  <value observed>
1 to 20 nM

$$$$
>  <smiles string>
C[C@@H](Oc1ccc2[nH]nc(-c3ccc(N4CC5(C4)CN(S(C)(=O)=O)C5)nc3)c2c1)c1c(Cl)cnc(F)c1Cl

>  <value observed>
1 to 20 nM

$$$$
>  <smiles string>
C[C@H](Oc1ccc2[nH]nc(-c3ccc(N4CC5(C4)CN(S(C)(=O)=O)C5)nc3)c2c1)c1c(Cl)cnc(F)c1Cl

>  <value observed>
100 to 300 nM

$$$$
>  <smiles string>
COc1cc2[nH]nc(-c3cnc(N4CC[C@H](O)C4)c(C#N)c3)c2cc1O[C@H](C)c1c(C)cnnc1C

>  <value observed>
20 to 100 nM

$$$$
>  <smiles string>
C[C@@H](Oc1ccc2[nH]nc(-c3cnc(N4CCC5(CCNC5=O)CC4)nc3)c2c1)c1c(Cl)cncc1Cl

>  <value observed>
1 to 20 nM

$$$$

Numbers sourced from patent US20240109865A1.
